# Tested on: IGROV1 ovarian
# protocol description: NCI tumour cell line growth inhibition, 48 h
test readout: TGI

The following compounds have reported results that may help.
[[record]]
compound = "O=C1c2ccccc2C(=O)c2c(Nc3ccc4c5c(cccc35)C(=O)c3ccccc3-4)cccc21"
experimental_result = "> 100 µM"

[[record]]
compound = "CC(C)(C)c1cc(-c2cc(C(C)(C)C)n(-c3ccccc3)n2)nn1-c1ccccc1"
experimental_result = "> 100 µM"

[[record]]
compound = "CC(C)CC1C(=O)NCCC(NC(=O)C(N)Cc2ccc(O)cc2)C(=O)NC(Cc2ccccc2)C(=O)NC(Cc2ccccc2)NC1=O (configuration not stated)"
experimental_result = "> 100 µM"

[[record]]
compound = "Oc1cc(O)c2c(-c3c(O)c(-c4ccc(O)c(O)c4)[o+]c4cc(O)cc(O)c34)c(O)c(-c3ccc(O)c(O)c3)[o+]c2c1"
experimental_result = "> 100 µM"

[[record]]
compound = "Clc1cc(Cc2cc(Cl)c(Cl)c3c2OCOC3)c2c(c1Cl)COCO2"
experimental_result = "> 100 µM"


# return TGI for each item in the list
1. N#Cc1c(NN)nc(NN)c(C#N)c1-c1ccccc1
2. COc1ccc2c(=O)c3ccoc3n(CC=C(C)C)c2c1
3. O=C(NC(CS)C(=O)O)c1cccc2c(=O)c3ccccc3[nH]c12 (configuration not stated)

1: > 100 µM; 2: > 100 µM; 3: > 100 µM

# return TGI for each item in the list
1. O=c1ccn(C2OC(CO/N=C/c3ccc(O)c(O)c3O)C(O)C2O)c(=O)[nH]1 (configuration not stated)
2. Cc1nc2sc3ccccc3n2c(=O)c1N=Nc1ccc(Br)cc1
3. COC(=O)c1c2c(c(C)[n+]([O-])c1C)C(=O)C=C(NCc1ccc(F)c(Cl)c1)C2=O
4. CCN1CCN(c2ccc(Nc3ccnc4ccc5c(nnn5C)c34)cc2)CC1

["38.5 µM", "> 100 µM", "1.91 µM", "32.6 µM"]

====

Please respond with reported TGI for every item in the list.
# Tested on: SNB-19 CNS
# protocol description: NCI tumour cell line growth inhibition, 48 h
Numbers only, in µM.

The following molecules have reported results that may help.
[[record]]
molecule = "CC(=O)OC(C)C1C2=C(C(=O)CC1(C)O)C(=O)c1c(ccc(-c3ccc4c(c3O)C(=O)C3=C(C4=O)C(C(C)OC(C)=O)C(C)(O)CC3=O)c1O)C2=O (centres undefined)"
experimental_result = 24

[[record]]
molecule = "CC1(C)N=C(N)N=C(N)N1c1ccc(OCCCCOc2ccc(S(=O)(=O)F)cc2)c(Cl)c1"
experimental_result = 17.8

[[record]]
molecule = "NNC(=O)c1ccccc1NC(=O)/C(=C/c1ccccc1O)NC(=O)c1ccccc1"
experimental_result = 79.7


Item under review: COc1cc(C)c2c(=O)c3ccccc3n(C)c2c1 . Reported TGI?
98.6

====

# Test system: NCI-H460 lung
# protocol description: NCI tumour cell line growth inhibition, 48 h
test readout: TGI

[[record]]
compound = "N#CCCCC[N+]12CN3CN(CN(C3)C1)C2"
experimental_result = "> 100 µM"

[[record]]
compound = "COc1cc(C2c3cc(O)c(OC)cc3C3OCC2C3CO)ccc1O (centres undefined)"
experimental_result = "> 100 µM"

[[record]]
compound = "c1ccc(N=C(Nc2ccccc2)N2CCCCC2)cc1"
experimental_result = "> 100 µM"


Item under review: CC[C@H](Nc1nc(NCc2cnc(C)cc2C)c2ncn(C(C)C)c2n1)[C@@H](C)O . Reported TGI?
15.7 µM

====

# Tested on: UACC-257 melanoma
# protocol description: NCI tumour cell line growth inhibition, 48 h; in the data active means GI50 below about 0.43 µM; inactive means the rest
Log the outcome using a class from active, inactive

Examples from the recorded data:
[[record]]
compound = "C#CCC(Cc1cnc2nc(N)nc(N)c2n1)c1ccc(C(=O)N[C@@H](CCC(=O)O)C(=O)O)cc1 (stereo partly drawn)"
class_name = "active"

[[record]]
compound = "O=C1/C(=C/c2ccccc2)CN(C(=O)c2cccnc2)C/C1=C\\c1ccccc1"
class_name = "inactive"

[[record]]
compound = "COc1cc2c3c(n(CCCN)c(=O)c2cc1OC)-c1cc2c(cc1/C3=C\\CCN)OCO2"
class_name = "inactive"

[[record]]
compound = "N[C@@H]1CCCC[C@H]1N.O=C([O-])C(=O)[O-].[Pt+4]"
class_name = "inactive"

[[record]]
compound = "O=c1ccc2nc(-c3ccccc3)nn(-c3ccccn3)c-2c1"
class_name = "inactive"


Given CC(C)[C@H](CO)Nc1nc(Nc2ccc(C(=O)NCCNS(=O)(=O)c3cccc4c(N(C)C)cccc34)c(Cl)c2)c2ncn(C(C)C)c2n1 , state the outcome it received in this test.
inactive

Given COC(=O)C1=C(C(=O)ON)C2C=CC1(C(Cc1ccccc1)Nc1ccccc1)O2 (stereo not drawn) , state the outcome it received in this test.
inactive

Given O=C(CNc1ccc2c(c1)C(=O)c1ccccc1C2=O)Nc1ccc2c(c1)C(=O)c1ccccc1C2=O , state the outcome it received in this test.
inactive

====

# Tested on: OVCAR-4 ovarian
# protocol description: NCI tumour cell line growth inhibition, 48 h; in the data active = GI50 below about 0.43 µM; inactive = the rest
Log the outcome using a class from label 1 (active), label 0 (inactive)

Examples from the recorded data:
[[record]]
compound = "O=c1ccn(C2OC(CO/N=C/c3ccc(O)c(O)c3O)C(O)C2O)c(=O)[nH]1 (centres undefined)"
system_name = "OVCAR-4 ovarian"
class_name = "label 0"

[[record]]
compound = "COc1ccccc1CCN=C1NC(=O)/C(=C/c2ccc3ncccc3c2)S1"
system_name = "OVCAR-4 ovarian"
class_name = "label 0"

[[record]]
compound = "O=C1c2cc3c(cc2-c2c1c1ccc(Cl)cc1c(=O)n2CCCNCCO)OCO3"
system_name = "OVCAR-4 ovarian"
class_name = "label 0"

[[record]]
compound = "O=C(/C=C/c1cccnc1)NCCCCC1CCCN(C(=O)c2ccccc2)C1 (centres undefined)"
system_name = "OVCAR-4 ovarian"
class_name = "label 0"

[[record]]
compound = "c1ccc2[nH]c(-c3ccc(NN=Nc4ccncc4)cc3)nc2c1"
system_name = "OVCAR-4 ovarian"
class_name = "label 0"

[[record]]
compound = "C=C(CN1C(=O)[C@H]2CCCN2C(=O)c2ccccc21)c1ccc(C(=O)O)cc1"
system_name = "OVCAR-4 ovarian"
class_name = "label 0"

[[record]]
compound = "CC(C)(O)CS(=O)(=O)Nc1ccc2c(c1)CCN(C(=O)COc1cccnc1)C2"
system_name = "OVCAR-4 ovarian"
class_name = "label 0"

[[record]]
compound = "O=c1ccc2nc(-c3ccccc3)nn(-c3ccccn3)c-2c1"
system_name = "OVCAR-4 ovarian"
class_name = "label 0"

[[record]]
compound = "CC(=O)[CH-]C(=O)c1ccccc1.CC(=O)[CH-]C(=O)c1ccccc1.CC1(C)C2CCC1(C)C([O-])C2.CC1(C)C2CCC1(C)C([O-])C2.[Ti+4]"
system_name = "OVCAR-4 ovarian"
class_name = "label 0"

[[record]]
compound = "Fc1ccc2c(c1)c(-c1nc(-c3c[nH]c4ncccc34)cs1)cn2CCCN1CCCCC1"
system_name = "OVCAR-4 ovarian"
class_name = "label 0"


Given COc1ccc(/C=C\c2cc(OC)c(OC)c(OC)c2)cc1OC(=O)c1cccc(Cn2cc(CCOC(=O)[C@H](N)Cc3cn(C)c4ccccc34)nn2)c1 , state the outcome it received in this test.
label 1

Given COC(=O)c1c2c(c(C)[n+]([O-])c1C)C(=O)C=C(NCc1ccc(F)c(Cl)c1)C2=O , state the outcome it received in this test.
label 1

Given CCCc1cc2c(=O)c(C(=O)OC)c[nH]c2cc1N(CC)CC , state the outcome it received in this test.
label 0

Given N#Cc1nc2c(S(=O)(=O)c3ccccc3)c(N)n(Cc3cccnc3)c2nc1C#N , state the outcome it received in this test.
label 0

====

# Test system: A549 NSCLC
# protocol description: NCI tumour cell line growth inhibition, 48 h
test readout: TGI

The following molecules have reported results that may help.
[[record]]
molecule = "COc1ccc(/C=C/C(=O)/C=C/c2ccc(OC)cc2)cc1"
test_readout = "TGI"
experimental_result = "> 100 µM"

[[record]]
molecule = "CSc1nc(Cl)c(Br)c(Sc2nc(N)nc3nc[nH]c23)n1"
test_readout = "TGI"
experimental_result = "48.7 µM"

[[record]]
molecule = "CC1(C)O[C@@H]2[C@@H](COC(=O)c3ccccc3)C[C@@H](C#N)[C@@H]2O1"
test_readout = "TGI"
experimental_result = "> 100 µM"

[[record]]
molecule = "Ic1ccccc1-c1ccccc1"
test_readout = "TGI"
experimental_result = "> 100 µM"

[[record]]
molecule = "Nc1nc(N)c(C2=CCNCC2)c(=O)[nH]1"
test_readout = "TGI"
experimental_result = "> 100 µM"

[[record]]
molecule = "N#CCCCC[N+]12CN3CN(CN(C3)C1)C2"
test_readout = "TGI"
experimental_result = "> 100 µM"


# return TGI for each item in the list
1. COc1cc(/C=C(\C#N)C(=O)c2ccccc2)ccc1O
2. CC(C)=CCNc1ncnc2nc[nH]c12
3. O=C(c1ccco1)c1nc2cc(Cl)ccc2[n+]([O-])c1C(F)(F)F
4. COC(=O)c1ccccc1C1CN=NC12Cc1ccc(C)c(C)c1C2=O (stereo not given)
5. Cc1cc2nc(CCC(=O)O)c(=O)[nH]c2cc1C
6. CC(=O)OC1COC(Nc2ccc(C(C)=O)cc2)C(OC(C)=O)C1OC(C)=O (stereo not given)
7. CC(=O)[C@@]1(O)CC[C@H]2[C@@H]3C[C@H](C)C4=CC(=O)CC[C@]4(C)[C@H]3[C@@H](O)C[C@@]21C
8. Nc1nc(N)c2c(n1)NC(=O)c1c(c3ccccc3n1Cc1ccc(Cl)cc1)C2

> 100 µM
> 100 µM
> 100 µM
> 100 µM
> 100 µM
> 100 µM
> 100 µM
62.6 µM

# return TGI for each item in the list
1. c1ccc(N=C(Nc2ccccc2)N2CCCCC2)cc1
2. CC(=O)Nc1ccc(NC(=O)c2c(Cl)c(Cl)c(Cl)c(Cl)c2-c2nc3ccccc3[nH]2)cc1
3. CC(=O)O[C@H]1C(=O)[C@@]2(C)[C@H]([C@H](OC(=O)c3cccc(C(F)(F)F)c3)[C@]3(O)C[C@H](OC(=O)[C@H](O)[C@@H](NC(=O)c4ccccc4)c4ccccc4)C(C)=C1C3(C)C)[C@]1(OC(C)=O)CO[C@@H]1C[C@@H]2O
4. N#Cc1c(Cl)cccc1Oc1ccc(S(=O)(=O)/N=C(\NN)Nc2ccc(Cl)cc2)cc1
5. CC(=O)OC[C@]1(O)CC[C@@]23CC1C[C@@H]2CCC1C(C)(C)CCC[C@@]13C (stereo not given in full)
6. CC(C)(C)C(=O)C(C(=O)C(C)(C)C)C(=O)C(C)(C)C

1: > 100 µM; 2: > 100 µM; 3: > 25 µM; 4: > 100 µM; 5: 29.6 µM; 6: > 100 µM
